experiment description: In vitro plasma protein binding (ultrafiltration, Centrifree)
Assay type: in vitro ADME
conditions used: human, pooled human blood plasma, 30 min, 37 °C, ultrafiltration, read-out: fu (unbound fraction)
Lab note: cut-off is 0.4. Strictly less in fraction unbound at 30 min, 0.5 µM is 1. Exactly 0.4 or more is -1.

INSERT INTO measurements (compound, assigned_class) VALUES
  ('CSc1ccc(C(=O)C(C)N2CCOCC2)cc1 (stereo not drawn)', 1);

-- ask Threshold test, fraction unbound at 30 min, 0.5 µM < 0.4: CCNC(CC)C(=O)c1ccc(OC)cc1 (stereo not drawn)
-- reply -1

-- ask Threshold test, fraction unbound at 30 min, 0.5 µM < 0.4: CCC(C(=O)c1ccc(SC)cc1)N1CCCC1 (stereo not drawn)
-- reply 1

-- ask Threshold test, fraction unbound at 30 min, 0.5 µM < 0.4: CCC(C(=O)c1ccc(OC)cc1)N1CCCC1 (stereo not drawn)
-- reply -1

-- ask Threshold test, fraction unbound at 30 min, 0.5 µM < 0.4: CCNC(CC)C(=O)c1ccc(SC)cc1 (stereo not drawn)
-- reply 1

---

System: pooled human liver S9 fraction (pHLS9) and HepaRG cells
experiment description: In vitro metabolism by pHLS9 and HepaRG cells (LC-HRMS/MS metabolite identification)
Format: in vitro ADME
conditions used: 25 µM substrate
Measured number of metabolites tentatively identified by item
Response field accepts a number only; no unit should be typed.

In the examples that follow, each entry is paired with its recorded number of metabolites tentatively identified.
INSERT INTO measurements (molecule, observed_measurement) VALUES
  ('CCCC(C(=O)c1ccc(OC)cc1)N1CCCC1 (stereo not drawn)', 10),
  ('CSc1ccc(C(=O)C(C)N2CCOCC2)cc1 (stereo not drawn)', 10),
  ('CCC(C(=O)c1ccc(SC)cc1)N1CCCC1 (stereo not drawn)', 8),
  ('CCC(C(=O)c1ccc(OC)cc1)N1CCCC1 (stereo not drawn)', 5),
  ('CCNC(CC)C(=O)c1ccc(SC)cc1 (stereo not drawn)', 7);

Now let's try a different one.
-- ask Suppose we examine the molecule CCNC(CC)C(=O)c1ccc(OC)cc1 (stereo not drawn) ; what number of metabolites tentatively identified value has been reported?
-- reply 5

---

experiment description: In vitro plasma protein binding (ultrafiltration, Centrifree)
Type: in vitro ADME
conditions used: human, pooled human blood plasma, 30 min, 37 °C, ultrafiltration, read-out: PPB, % (converted)
parameter measured: fraction unbound at 30 min, 0.5 µM
Response field accepts a number only; no unit should be typed.

In the examples that follow, each entry is paired with its recorded fraction unbound at 30 min, 0.5 µM.
INSERT INTO results (compound, parameter_measured, observed_measurement) VALUES
  ('CCC(C(=O)c1ccc(SC)cc1)N1CCCC1 (stereo not drawn) [Compound 4MeS-αP-BP, 4’-methylthio-α-pyrrolidinobutyrophenone]', 'fraction unbound at 30 min, 0.5 µM', 0.16),
  ('CCNC(CC)C(=O)c1ccc(SC)cc1 (centres unmarked) [Compound 4MeS-NE-BP, 4’-methylthio-N-ethylbutyrophenone]', 'fraction unbound at 30 min, 0.5 µM', 0.13);

Now let's try a different one.
-- ask Suppose we examine the compound CSc1ccc(C(=O)C(C)N2CCOCC2)cc1 (centres unmarked) [4MeS-αMor-PrP, 4’-methylthio-2-morpholinopropiophenone] ; what fraction unbound at 30 min, 0.5 µM value has been reported?
-- reply 0.14
